Ref: patent US8299021B2

studySystem: NS3-NS4 protease (full-length NS3/NS4A-2) (Hepatitis C virus genotype 1a)
Construct: Recombinant E. coli or Baculovirus full-length NS3 was diluted to 3.33 μM with assay buffer; made in house; host or cells: E. coli or baculovirus (insect cells)
Sequence (P27958 1027-1657): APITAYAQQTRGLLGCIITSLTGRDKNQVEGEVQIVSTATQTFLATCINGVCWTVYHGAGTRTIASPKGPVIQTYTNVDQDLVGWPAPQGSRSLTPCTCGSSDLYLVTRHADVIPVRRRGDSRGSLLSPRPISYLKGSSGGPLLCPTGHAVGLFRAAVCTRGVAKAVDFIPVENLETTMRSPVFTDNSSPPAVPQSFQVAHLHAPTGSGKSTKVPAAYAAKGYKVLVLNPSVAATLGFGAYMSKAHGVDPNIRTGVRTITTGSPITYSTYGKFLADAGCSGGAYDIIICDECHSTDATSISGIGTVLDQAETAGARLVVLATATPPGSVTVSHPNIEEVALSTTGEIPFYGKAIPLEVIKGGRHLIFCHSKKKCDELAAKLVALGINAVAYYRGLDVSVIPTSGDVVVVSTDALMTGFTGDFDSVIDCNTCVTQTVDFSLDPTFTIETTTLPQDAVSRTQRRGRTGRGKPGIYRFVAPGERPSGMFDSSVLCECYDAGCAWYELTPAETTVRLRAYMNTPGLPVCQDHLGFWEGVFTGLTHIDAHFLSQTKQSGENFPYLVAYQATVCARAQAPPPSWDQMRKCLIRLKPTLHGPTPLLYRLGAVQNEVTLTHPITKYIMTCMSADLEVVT
experimentalProtocol: NS3-NS4 protease assay / NS3 inhibition assay (RETS1 substrate, fluorescence kinetic read)
Format: biochemical
setupConditions: Table 22; read-out: NS3-NS4 IC50
pIC50: −log10 of the molar value.
assayMetric: pIC50

>>> value("C[C@@H](NC(=O)[C@@]12C[C@H]1/C=C\\CCCCC[C@H](NC(=O)OC(C)(C)C)C(=O)N1CCC[C@H]1C(=O)N2)c1ccccc1 [Compound 2311]")
"> 6.00"
>>> value("C[C@H](NC(=O)[C@@]12C[C@H]1/C=C\\CCCCC[C@H](NC(=O)OC(C)(C)C)C(=O)N1CCC[C@H]1C(=O)N2)c1ccccc1 [Compound 2301]")
"> 5.00"
>>> value("CC(C)(C)OC(=O)N[C@H]1CCCCC/C=C\\[C@@H]2C[C@@]2(C(=O)NCc2ccc(Cl)cc2)NC(=O)[C@@H]2CCCN2C1=O [Compound 2308]")
"> 6.00"
>>> value("CC(C)(C)OC(=O)N[C@H]1CCCCC/C=C\\[C@@H]2C[C@@]2(C(=O)Nc2ccc(F)cc2)NC(=O)[C@@H]2CCCN2C1=O [Compound 2304]")
"> 6.00"
>>> value("CC(C)(C)OC(=O)N[C@H]1CCCCC/C=C\\[C@@H]2C[C@@]2(C(=O)NCc2cccc(C(=O)O)c2)NC(=O)[C@@H]2CCCN2C1=O [Compound 2310]")
"> 6.00"
>>> value("CC(C)(C)OC(=O)N[C@H]1CCCCC/C=C\\[C@@H]2C[C@@]2(C(=O)NC#N)NC(=O)[C@@H]2CCCN2C1=O [Compound 2306]")
"> 6.00"
